test: Phosphate-binding assay in phosphate-binding solution (PBS) simulating small intestinal fluid (SIF); conditions: Table 3; 20 mg binder in 4.0 mL PBS, 1 h, room temperature
With a cut-off of 9 mg/g, any PO4 binding strictly below it is called 1; any PO4 binding meeting it or above is called 0.

Would you please look over these solved cases?
Compound: O=C([O-])CCC(=O)[O-].[Mg+2] [Mg succinate]
Category Label: 0

Compound: O=C[O-].O=C[O-].[Mg+2] [Mg formate]
Category Label: 1

Compound: NCC(=O)[O-].NCC(=O)[O-].[Mg+2] [Mg glycinate, magnesium glycinate]
Category Label: 0

Note: attention shifts to another entry.
(Q) Does the reported PO4 binding of the following compound sit strictly below 9 mg/g? CC(=O)[O-].CC(=O)[O-].[Mg+2] [Mg acetate]
(A) 1
